- test_system: T1, FZD9 cysteine-rich domain (CRD), MYC-tagged and GPI-anchored on CHO cells (human, UniProt O00144 35-161, GPI anchor)
- T1 construct: also called FZD9 CRD; CHO-myc-FZDGPI; not shown: MYC tag and GPI anchor signal
- T1 sequence: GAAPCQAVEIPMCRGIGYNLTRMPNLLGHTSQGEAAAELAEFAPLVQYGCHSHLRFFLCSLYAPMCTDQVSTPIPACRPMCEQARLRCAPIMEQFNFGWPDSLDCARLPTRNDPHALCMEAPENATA
- experiment: immunofluorescence, CHO-CRD cells
measured_endpoint: binding result

INSERT INTO results (binder, measured_endpoint, experimental_result) VALUES
  ('Fab-2918 (Fab, V domains shown, Fab; also called Fv-2918) VH: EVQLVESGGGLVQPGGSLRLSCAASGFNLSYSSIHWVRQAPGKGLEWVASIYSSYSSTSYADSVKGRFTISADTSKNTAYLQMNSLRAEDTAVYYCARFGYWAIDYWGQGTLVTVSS VL: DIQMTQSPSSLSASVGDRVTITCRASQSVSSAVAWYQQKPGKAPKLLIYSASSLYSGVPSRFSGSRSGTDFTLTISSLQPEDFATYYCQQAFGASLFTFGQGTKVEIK', 'binding result', 'no binding'),
  ('Fab-2900 (Fab, V domains shown, Fab; also called Fv-2900) VH: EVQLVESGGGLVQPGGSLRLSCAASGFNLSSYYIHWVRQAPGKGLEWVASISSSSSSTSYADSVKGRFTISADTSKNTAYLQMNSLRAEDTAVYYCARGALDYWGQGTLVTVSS VL: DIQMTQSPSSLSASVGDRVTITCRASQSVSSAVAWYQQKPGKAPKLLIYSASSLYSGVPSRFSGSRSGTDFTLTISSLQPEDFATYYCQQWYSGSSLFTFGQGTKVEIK', 'binding result', 'no binding'),
  ('Fab-2935 (Fab, V domains shown, Fab; also called Fv-2935) VH: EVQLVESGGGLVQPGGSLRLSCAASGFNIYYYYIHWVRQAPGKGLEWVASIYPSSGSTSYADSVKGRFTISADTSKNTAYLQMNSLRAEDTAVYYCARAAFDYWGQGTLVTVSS VL: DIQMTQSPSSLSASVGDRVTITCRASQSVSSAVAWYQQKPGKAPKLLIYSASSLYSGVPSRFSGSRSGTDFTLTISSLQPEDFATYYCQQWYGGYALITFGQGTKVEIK', 'binding result', 'no binding');

Data credit: patent US20210253718A1
